Target: CYP2C9 (Homo sapiens, UniProt P11712)
Construct: 0.1 mg/mL protein human liver microsomes (BD Gentest); tissue BD Gentest; host or cells: human liver microsomes
Sequence (P11712 whole entry): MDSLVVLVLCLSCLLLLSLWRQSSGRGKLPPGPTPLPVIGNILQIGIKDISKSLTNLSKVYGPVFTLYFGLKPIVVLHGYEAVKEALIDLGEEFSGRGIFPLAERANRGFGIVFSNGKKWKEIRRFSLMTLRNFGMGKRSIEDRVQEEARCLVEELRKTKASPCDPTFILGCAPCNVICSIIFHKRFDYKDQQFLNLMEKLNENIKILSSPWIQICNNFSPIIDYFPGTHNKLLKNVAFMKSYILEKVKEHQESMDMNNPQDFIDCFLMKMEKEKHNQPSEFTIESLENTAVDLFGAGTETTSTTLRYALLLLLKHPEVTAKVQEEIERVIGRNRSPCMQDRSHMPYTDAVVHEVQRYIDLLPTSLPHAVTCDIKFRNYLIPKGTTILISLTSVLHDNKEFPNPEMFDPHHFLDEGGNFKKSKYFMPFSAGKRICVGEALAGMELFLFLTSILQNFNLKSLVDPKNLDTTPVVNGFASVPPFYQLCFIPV
Assay: Cocktail assay for CYPs, diclofenac 4′-hydroxylation (CYP2C9), human liver microsomes
Assay type: biochemical
Details: CYP IC50 (nM) 2C9, 5 μM diclofenac, 0.1 mg/mL human liver microsomes, 10 min at 37° C.
resultType: IC50 (nM)
Return type: number; implicit unit nM.

C[C@H](NS(=O)(=O)c1cnc(N2CCN3C[C@H](O)C[C@H]3C2)s1)c1ccccc1-c1cncn1CCc1ccc(F)cc1 [Compound 6b]	5450

# next compound below
Endpoint output: IC50 of C[C@@H](NS(=O)(=O)c1cnc(N2CCN3C[C@H](O)C[C@H]3C2)s1)c1ccccc1-c1cncn1CCc1ccc(F)cc1 [Compound 6a] . Value?
4550

###

In this section, each of the compounds is paired with its reported log10 IC50.
Target: CYP3A4 (Homo sapiens, UniProt P08684)
Sequence (P08684 whole entry): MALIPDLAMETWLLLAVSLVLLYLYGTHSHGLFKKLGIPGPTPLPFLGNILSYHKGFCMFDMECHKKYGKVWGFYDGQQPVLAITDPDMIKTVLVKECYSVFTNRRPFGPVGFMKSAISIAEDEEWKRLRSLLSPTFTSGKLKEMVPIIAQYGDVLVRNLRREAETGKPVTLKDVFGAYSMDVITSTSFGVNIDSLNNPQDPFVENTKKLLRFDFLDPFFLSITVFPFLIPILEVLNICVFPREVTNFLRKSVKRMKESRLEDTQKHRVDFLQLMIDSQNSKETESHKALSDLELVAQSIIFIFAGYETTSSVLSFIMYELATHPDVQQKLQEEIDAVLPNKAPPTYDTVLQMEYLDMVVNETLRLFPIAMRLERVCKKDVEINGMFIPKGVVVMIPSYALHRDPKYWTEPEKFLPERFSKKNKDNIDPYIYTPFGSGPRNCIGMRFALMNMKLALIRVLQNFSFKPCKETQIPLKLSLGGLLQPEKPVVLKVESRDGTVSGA
Experiment: Cocktail assay for CYPs, midazolam 1′-hydroxylation (CYP3A4), human liver microsomes
Type: biochemical
Parameters: 0.1 mg/mL protein human liver microsomes (BD Gentest); tissue BD Gentest; host or cells: human liver microsomes
Settings: 2 μM midazolam, 0.1 mg/mL human liver microsomes, 10 min at 37° C.; read-out: CYP IC50 (nM) 3A4 (MDZ)
Units before log transform: nM; reported quantity: IC50; transform: log10.

Past entries and their recorded results:
O=S(=O)(c1cnc(Cl)c(Br)c1)N1CCCC1c1cccc(-c2cncn2CCc2ccc(F)cc2)c1 (stereo not shown)	1.14
O=S(=O)(c1ccc(N2CCOCC2)nc1)N1CCCC1c1ccccc1-c1cncn1CCc1ccc(F)cc1 (stereo not shown)	0.92
O=S(=O)(c1ccc(N2CCC(O)CC2)nc1)N1CCCC1c1ccccc1-c1cncn1CCc1ccc(F)cc1 (single isomer, unassigned) [Compound 33]	1.35
CN1CCN(c2ncc(S(=O)(=O)N3CCc4c(-c5cncn5CCc5ccc(F)cc5)ccnc4C3)s2)CC1	1.35
O=C(NCc1ccc(S(=O)(=O)N2CCCC2c2cccc(-c3cncn3CCc3ccc(F)cc3)c2)s1)c1ccccc1 (single isomer, unassigned) [Compound 55a]	0.82

State the recorded log10 IC50 for this entry: `CC(=O)Nc1ncc(S(=O)(=O)NCc2ccc(-c3cncn3CCc3ccc(F)cc3)cn2)s1`
2.29

Fill blank: measured log10 IC50 of the compound CC(C)OC(=O)N1CCCC1c1ccccc1-c1cncn1CCc1ccc(F)cc1 (single isomer, unassigned) [Compound 39a] is ____.
0.88

###

Entries annotated with measured IC50
Target: CYP1A2 (Homo sapiens)
Construct: 0.1 mg/mL protein human liver microsomes (BD Gentest); tissue BD Gentest; host or cells: human liver microsomes
Sequence (P05177 whole entry): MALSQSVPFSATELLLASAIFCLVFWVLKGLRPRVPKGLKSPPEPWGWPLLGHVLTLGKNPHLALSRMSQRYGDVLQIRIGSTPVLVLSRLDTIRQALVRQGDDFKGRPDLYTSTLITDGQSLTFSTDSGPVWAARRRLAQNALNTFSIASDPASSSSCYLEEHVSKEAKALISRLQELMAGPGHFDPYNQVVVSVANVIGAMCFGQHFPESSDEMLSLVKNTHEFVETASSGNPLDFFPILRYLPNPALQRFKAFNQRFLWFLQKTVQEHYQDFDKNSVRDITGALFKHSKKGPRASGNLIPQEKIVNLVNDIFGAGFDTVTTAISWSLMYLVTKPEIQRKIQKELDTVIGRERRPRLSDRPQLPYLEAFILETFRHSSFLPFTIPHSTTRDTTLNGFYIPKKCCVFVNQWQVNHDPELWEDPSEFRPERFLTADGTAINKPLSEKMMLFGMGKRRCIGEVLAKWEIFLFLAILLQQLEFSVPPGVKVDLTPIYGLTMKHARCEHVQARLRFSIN
Experiment: Cocktail assay for CYPs, phenacetin O-deethylation (CYP1A2), human liver microsomes
Type: biochemical
Conditions: 10 μM phenacetin, 0.1 mg/mL human liver microsomes, 10 min at 37° C.; read-out: CYP IC50 (nM) 1A2
Protocol: Determination of IC50 in a Cocktail Assay for CYPs 1A2, 2C9, 2C19, 2D6 and 3A4: This assay was performed in a standard 96-well plate design. […] The production of the metabolite of each probe substrate was determined after incubation for 10 min at 37° C. Quantitation of the metabolite peak area ratio against an internal standard (tolbutamide) was determined by LC/MS/MS analysis following acetonitrile treatment of the incubations. […]
I only need the number, in nM, no unit after it.

Example entries and their recorded answers appear below.
CC(=O)Nc1ncc(S(=O)(=O)NC(C)(C)c2ccccc2-c2cncn2CCc2ccc(F)cc2)s1	6070
CC(C)NC(=O)N1CCCC1c1cccc(-c2cncn2CCc2ccc(F)cc2)c1 (stereo not shown)	5750
COc1ccc(OC)c(S(=O)(=O)N2CCCC2c2cccc(-c3cncn3CCc3ccc(F)cc3)c2)c1 (single isomer, unassigned) [Compound 53a]	1080

// switching to the query compound
So what IC50 did O=S(=O)(c1ccc(N2CCC(O)CC2)nc1)N1CCCC1c1cccc(-c2cncn2CCc2ccc(F)cc2)c1 (single isomer, unassigned) [Compound 57b] get with CYP1A2 (Homo sapiens)?
190
